target: ATP-dependent translocase ABCB1 (Homo sapiens, UniProt P08183); experiment: Inhibition of human MDR1 expressed in mouse NIH/3T3 cells assessed as reduction in vinblastine IC50 at 1 uM by MTT assay; format: cell-based; conditions: nih3t3, 1 µM
Sequence (P08183 whole entry): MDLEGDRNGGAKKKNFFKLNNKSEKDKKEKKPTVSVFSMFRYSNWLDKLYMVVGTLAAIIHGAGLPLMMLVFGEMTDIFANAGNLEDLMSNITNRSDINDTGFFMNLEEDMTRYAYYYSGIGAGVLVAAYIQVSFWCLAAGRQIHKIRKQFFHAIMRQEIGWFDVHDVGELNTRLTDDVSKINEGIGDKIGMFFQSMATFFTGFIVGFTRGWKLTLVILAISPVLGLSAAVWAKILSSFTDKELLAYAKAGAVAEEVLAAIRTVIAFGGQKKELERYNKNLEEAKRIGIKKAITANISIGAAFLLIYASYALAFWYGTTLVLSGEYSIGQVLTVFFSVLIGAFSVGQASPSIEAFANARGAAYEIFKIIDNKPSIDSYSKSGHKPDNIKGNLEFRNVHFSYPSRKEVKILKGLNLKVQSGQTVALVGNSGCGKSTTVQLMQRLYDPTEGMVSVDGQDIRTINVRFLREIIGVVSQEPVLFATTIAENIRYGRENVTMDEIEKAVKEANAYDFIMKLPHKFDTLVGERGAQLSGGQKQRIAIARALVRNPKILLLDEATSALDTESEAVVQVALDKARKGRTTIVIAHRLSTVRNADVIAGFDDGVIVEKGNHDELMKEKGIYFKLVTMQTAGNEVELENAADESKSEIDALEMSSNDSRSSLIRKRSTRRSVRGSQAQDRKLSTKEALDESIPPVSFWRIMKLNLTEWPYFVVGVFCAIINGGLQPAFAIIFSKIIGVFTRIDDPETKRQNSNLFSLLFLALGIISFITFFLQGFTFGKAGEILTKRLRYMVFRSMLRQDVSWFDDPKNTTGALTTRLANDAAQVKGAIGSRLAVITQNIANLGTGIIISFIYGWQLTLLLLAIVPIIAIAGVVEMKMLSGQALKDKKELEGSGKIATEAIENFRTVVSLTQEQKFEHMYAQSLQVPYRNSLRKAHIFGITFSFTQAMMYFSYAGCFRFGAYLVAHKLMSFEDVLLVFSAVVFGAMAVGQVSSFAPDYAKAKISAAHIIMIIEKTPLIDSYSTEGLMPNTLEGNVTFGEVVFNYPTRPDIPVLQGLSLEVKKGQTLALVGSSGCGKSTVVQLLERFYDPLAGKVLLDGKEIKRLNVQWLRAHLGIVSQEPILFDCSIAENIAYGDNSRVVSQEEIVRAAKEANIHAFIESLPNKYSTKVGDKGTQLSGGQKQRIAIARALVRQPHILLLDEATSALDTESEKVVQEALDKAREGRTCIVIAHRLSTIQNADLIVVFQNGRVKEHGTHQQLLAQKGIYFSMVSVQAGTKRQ
observed-property: fold change (FC)

structure-smiles-string	experimental-result
CC(=O)O[C@H]1CC[C@](C)(OC(C)=O)[C@]23OC(C)(C)[C@H]([C@H](OC(=O)/C=C/c4ccccc4)[C@H](OC(=O)c4ccccc4)[C@]12C)[C@H]3OC(C)=O	21.2
CC(=O)O[C@H]1CC[C@](C)(O)[C@]23OC(C)(C)[C@H]([C@H](OC(=O)/C=C/c4ccccc4)[C@H](OC(=O)c4ccccc4)[C@]12C)[C@H]3OS(C)(=O)=O	18.5
COC(=O)CCCC(=O)O[C@@H]1[C@H]2[C@H](OC(=O)/C=C/c3ccccc3)[C@H](OC(=O)c3ccccc3)[C@]3(C)[C@@H](OC(C)=O)CC[C@](C)(O)[C@@]13OC2(C)C	7.5
CC(=O)O[C@H]1CC[C@](C)(O)[C@@]23OC(C)(C)[C@@H](C2=O)[C@H](OC(=O)/C=C/c2ccccc2)[C@H](OC(=O)c2ccccc2)[C@]13C	11.6
CC(=O)O[C@H]1CC[C@](C)(Cl)[C@]23OC(C)(C)[C@H]([C@H](OC(=O)/C=C/c4ccccc4)[C@H](OC(=O)c4ccccc4)[C@]12C)[C@H]3Cl	11.6
CC(=O)O[C@H]1CC[C@](C)(O)[C@]23OC(C)(C)[C@H]([C@H](OC(=O)/C=C\c4ccccc4)[C@H](OC(=O)c4ccccc4)[C@]12C)[C@H]3OC(C)=O	12.1

----------
biological target: ATP-dependent translocase ABCB1 (Homo sapiens, UniProt P08183); experiment: Inhibition of human MDR1 expressed in mouse NIH/3T3 cells assessed as reduction in daunomycin IC50 at 10 uM by MTT assay; format: cell-based; conditions: nih3t3, 10 µM
Entries annotated with measured fold change (FC)
observed-property: fold change (FC)

compound	system	observed-property	experimental-result
CC(=O)O[C@H]1CC[C@](C)(O)[C@]23OC(C)(C)[C@H]([C@H](OC(=O)/C=C/c4ccccc4)[C@H](OC(=O)c4ccccc4)[C@]12C)[C@H]3OC(=O)c1cccnc1	ATP-dependent translocase ABCB1 (Homo sapiens, UniProt P08183)	fold change (FC)	16.1
COc1ccc(CCN(C)CCCC(C#N)(c2ccc(OC)c(OC)c2)C(C)C)cc1OC (stereo unspecified)	ATP-dependent translocase ABCB1 (Homo sapiens, UniProt P08183)	fold change (FC)	10.8
CC(=O)O[C@H]1CC[C@](C)(O)[C@]23OC(C)(C)[C@H]([C@H](OC(=O)/C=C/c4ccccc4)[C@H](OC(=O)c4ccccc4)[C@]12C)[C@H]3OC(=O)N(C)C	ATP-dependent translocase ABCB1 (Homo sapiens, UniProt P08183)	fold change (FC)	16.3
COC(=O)CCCC(=O)O[C@@H]1[C@H]2[C@H](OC(=O)/C=C/c3ccccc3)[C@H](OC(=O)c3ccccc3)[C@]3(C)[C@@H](OC(C)=O)CC[C@](C)(O)[C@@]13OC2(C)C	ATP-dependent translocase ABCB1 (Homo sapiens, UniProt P08183)	fold change (FC)	15.9
CC(=O)O[C@H]1CC[C@](C)(OC(C)=O)[C@]23OC(C)(C)[C@H]([C@H](OC(=O)/C=C/c4ccccc4)[C@H](OC(=O)c4ccccc4)[C@]12C)[C@H]3OC(C)=O	ATP-dependent translocase ABCB1 (Homo sapiens, UniProt P08183)	fold change (FC)	15.2
CC(=O)O[C@H]1CC[C@](C)(O)[C@]23OC(C)(C)[C@H]([C@H](OC(=O)/C=C\c4ccccc4)[C@H](OC(=O)c4ccccc4)[C@]12C)[C@H]3OC(=O)c1cnccn1	ATP-dependent translocase ABCB1 (Homo sapiens, UniProt P08183)	fold change (FC)	9

----------
biological target: ATP-dependent translocase ABCB1 (Homo sapiens, UniProt P08183); experiment: Inhibition of human MDR1 expressed in mouse NIH/3T3 cells assessed as inhibition of daunomycin efflux incubated for 30 mins by flow cytometry; type: cell-based, NIH3T3
pKi: −log10 of the molar value.

structure-smiles-string	system	pKi
CC(=O)O[C@H]1CC[C@](C)(OC(C)=O)[C@]23OC(C)(C)[C@H]([C@H](OC(=O)/C=C/c4ccccc4)[C@H](OC(=O)c4ccccc4)[C@]12C)[C@H]3OC(C)=O	ATP-dependent translocase ABCB1 (Homo sapiens, UniProt P08183)	6.28
CC(=O)O[C@H]1CC[C@](C)(O)[C@]23OC(C)(C)[C@H]([C@H](OC(=O)CCc4ccccc4)[C@H](OC(=O)c4ccccc4)[C@]12C)[C@H]3O	ATP-dependent translocase ABCB1 (Homo sapiens, UniProt P08183)	6.33
CC(=O)O[C@H]1CC[C@](C)(O)[C@]23OC(C)(C)[C@H]([C@H](OC(=O)/C=C/c4ccccc4)[C@H](OC(=O)c4ccccc4)[C@]12C)[C@H]3OC(=O)N(C)C	ATP-dependent translocase ABCB1 (Homo sapiens, UniProt P08183)	5.92
CC(=O)O[C@H]1CC[C@](C)(Cl)[C@]23OC(C)(C)[C@H]([C@H](OC(=O)/C=C/c4ccccc4)[C@H](OC(=O)c4ccccc4)[C@]12C)[C@H]3Cl	ATP-dependent translocase ABCB1 (Homo sapiens, UniProt P08183)	5.87
COC(=O)CCC(=O)O[C@@H]1[C@H]2[C@H](OC(=O)/C=C/c3ccccc3)[C@H](OC(=O)c3ccccc3)[C@]3(C)[C@@H](OC(C)=O)CC[C@](C)(O)[C@@]13OC2(C)C	ATP-dependent translocase ABCB1 (Homo sapiens, UniProt P08183)	6.64
CC(=O)O[C@H]1CC[C@](C)(O)[C@]23OC(C)(C)[C@H]([C@H](OC(=O)/C=C/c4ccccc4)[C@H](OC(=O)c4ccccc4)[C@]12C)[C@H]3OC(=O)c1cccnc1	ATP-dependent translocase ABCB1 (Homo sapiens, UniProt P08183)	6.89
CC(=O)O[C@H]1CC[C@](C)(O)[C@@]23OC(C)(C)[C@@H](C2=O)[C@H](OC(=O)/C=C/c2ccccc2)[C@H](OC(=O)c2ccccc2)[C@]13C	ATP-dependent translocase ABCB1 (Homo sapiens, UniProt P08183)	6.20
CC(=O)O[C@H]1CC[C@](C)(O)[C@]23OC(C)(C)[C@H]([C@H](OC(=O)/C=C/c4ccccc4)[C@H](OC(=O)c4ccccc4)[C@]12C)[C@H]3O	ATP-dependent translocase ABCB1 (Homo sapiens, UniProt P08183)	6.55
CC(=O)O[C@H]1CC[C@](C)(O)[C@]23OC(C)(C)[C@H]([C@H](OC(=O)/C=C\c4ccccc4)[C@H](OC(=O)c4ccccc4)[C@]12C)[C@H]3OC(=O)c1ccccc1	ATP-dependent translocase ABCB1 (Homo sapiens, UniProt P08183)	6.60
CC(=O)O[C@H]1CC[C@](C)(O)[C@]23OC(C)(C)[C@H]([C@H](OC(=O)/C=C/c4ccccc4)[C@H](OC(=O)c4ccccc4)[C@]12C)[C@H]3OC(C)=O	ATP-dependent translocase ABCB1 (Homo sapiens, UniProt P08183)	6.54
CC(=O)O[C@H]1CC[C@](C)(O)[C@]23OC(C)(C)[C@H]([C@H](OC(=O)/C=C/c4ccccc4)[C@H](OC(=O)c4ccccc4)[C@]12C)[C@H]3OS(C)(=O)=O	ATP-dependent translocase ABCB1 (Homo sapiens, UniProt P08183)	6.22

----------
Entries annotated with measured fold change (FC)
target: ATP-dependent translocase ABCB1 (Homo sapiens, UniProt P08183); assay: Inhibition of human MDR1 expressed in mouse NIH/3T3 cells assessed as reduction in daunomycin IC50 at 3 uM by MTT assay; assay type: cell-based; conditions: nih3t3, 3 µM
observed-property: fold change (FC)

structure-smiles-string	system	experimental-result
CC(=O)O[C@H]1CC[C@](C)(O)[C@]23OC(C)(C)[C@H]([C@H](OC(=O)CCc4ccccc4)[C@H](OC(=O)c4ccccc4)[C@]12C)[C@H]3O	ATP-dependent translocase ABCB1 (Homo sapiens, UniProt P08183)	8.1
COC(=O)CCCC(=O)O[C@@H]1[C@H]2[C@H](OC(=O)/C=C/c3ccccc3)[C@H](OC(=O)c3ccccc3)[C@]3(C)[C@@H](OC(C)=O)CC[C@](C)(O)[C@@]13OC2(C)C	ATP-dependent translocase ABCB1 (Homo sapiens, UniProt P08183)	12.3
CC(=O)O[C@H]1CC[C@](C)(O)[C@]23OC(C)(C)[C@H]([C@H](OC(=O)/C=C\c4ccccc4)[C@H](OC(=O)c4ccccc4)[C@]12C)[C@H]3OC(C)=O	ATP-dependent translocase ABCB1 (Homo sapiens, UniProt P08183)	24
CC(=O)O[C@H]1CC[C@](C)(OC(C)=O)[C@]23OC(C)(C)[C@H]([C@H](OC(=O)/C=C/c4ccccc4)[C@H](OC(=O)c4ccccc4)[C@]12C)[C@H]3OC(C)=O	ATP-dependent translocase ABCB1 (Homo sapiens, UniProt P08183)	10.3
CC(=O)O[C@H]1CC[C@](C)(O)[C@]23OC(C)(C)[C@H]([C@H](OC(=O)/C=C\c4ccccc4)[C@H](OC(=O)c4ccccc4)[C@]12C)[C@H]3OC(=O)c1ccccc1	ATP-dependent translocase ABCB1 (Homo sapiens, UniProt P08183)	14.5
